Source listed as patent US11608341B2.

- system tested: C5AR1 (Homo sapiens, UniProt P21730)
- Sequence (P21730 whole entry): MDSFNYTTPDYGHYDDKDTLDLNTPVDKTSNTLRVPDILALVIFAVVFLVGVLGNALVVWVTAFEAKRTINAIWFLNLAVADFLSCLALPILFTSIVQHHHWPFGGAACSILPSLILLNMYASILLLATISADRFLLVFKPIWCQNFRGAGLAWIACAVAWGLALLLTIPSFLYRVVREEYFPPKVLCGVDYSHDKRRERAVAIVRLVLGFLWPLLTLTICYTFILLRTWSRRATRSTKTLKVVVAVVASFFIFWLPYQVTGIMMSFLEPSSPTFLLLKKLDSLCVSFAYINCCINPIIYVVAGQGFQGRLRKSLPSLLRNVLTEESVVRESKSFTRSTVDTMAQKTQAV
- procedure details: In vitro assay: antagonism of C5a-induced beta-arrestin recruitment (PathHunter) in CHO-K1 C5AR1 beta-arrestin cell line
- conditions: antagonistic activity, 1-10 nM C5a agonist, geometric mean where several measurements, read-out: C5aR IC50
pIC50: −log10 of the molar value.
This listing pairs molecules with measured pIC50.
quantity: pIC50

* Cc1cccc(F)c1N1CCC(N2Cc3nn(C)cc3N(C(C)c3ccccc3C(F)(F)F)C2=O)CC1 (single isomer, unassigned) [Example 262] | 6.33
* Cc1cccc(F)c1N1CCC(N2Cc3nn(CC4(C)CC4)cc3N(Cc3ccccc3C(F)(F)F)C2=O)CC1 | 7.96
* COC(=O)Cn1cc2c(n1)N(Cc1ccccc1C(F)(F)F)C(=O)N(C1CCN(c3c(C)cccc3F)CC1)C2 | 7.89
* CCOC(=O)N1CC[C@@H]1Cn1cc2c(n1)N(Cc1ccccc1C(F)(F)F)C(=O)N(C1CCN(c3c(C)cccc3F)CC1)C2 | 7.89
* Cc1cccc(F)c1N1CCC(N2Cc3cn(C)nc3N(Cc3ccccc3OC3COC3)C2=O)CC1 | 8.00
* Cc1nn(C)c(N2CCC(N3Cc4cn(C)nc4N(Cc4ccccc4C(F)(F)F)C3=O)CC2)c1Cl | 6.78
* COc1nccc(C)c1N1CCC(N2C(=O)N(Cc3ccccc3C3CC3)c3cn(C4CC4)nc3C2C)CC1 (single isomer, unassigned) [Example 292] | 6.29
* Cc1cccc(F)c1N1CCC(N2Cc3nn(C4CC4)cc3N(Cc3ccccc3C(F)(F)F)C2=O)CC1 | 7.85
* Cc1nn(C)c(N2CCC(N3Cc4cn(C)nc4N(Cc4ccccc4C(F)(F)F)C3=O)CC2)c1C#N | 6.26
* Cc1cccc(F)c1N1CCC(N2Cc3cn(CCN(C)C4CC4)nc3N(Cc3ccccc3C(F)(F)F)C2=O)CC1 | 7.77
* Cc1ccnc(C#N)c1N1CCC(N2Cc3cn(C)nc3N(Cc3ccccc3C(F)(F)F)C2=O)CC1 | 7.47
* Cc1cccc(F)c1N1CCC(N2C(=O)N(Cc3ccccc3C3CC3)c3nn(C4CC4)cc3C2C)CC1 (single isomer, unassigned) [Example 340] | 7.17
* Cc1nccc(F)c1N1CCC(N2Cc3cn(C)nc3N(Cc3ccccc3C(F)(F)F)C2=O)CC1 | 6.64
* Cn1cc2c(n1)N(Cc1ccccc1C(F)(F)F)C(=O)N(C1CCN(c3c(F)cccc3OC(F)(F)F)CC1)C2 | 7.80
* Cc1cccc(F)c1N1CCC(N2C(=O)N(Cc3ccccc3C(F)(F)F)c3cn(CC(C)(F)F)nc3C2C)CC1 (single isomer, unassigned) [Example 253] | 7.80
* Cc1cccc(F)c1N1CCC(N2C(=O)N(Cc3ccccc3C(F)(F)F)c3nn(C)cc3C2C)CC1 (single isomer, unassigned) [Example 221] | 7.11
* Cc1cccc(F)c1N1CCC(N2Cc3cn(C[C@@H]4CC(F)(F)CN4)nc3N(Cc3ccccc3C(F)(F)F)C2=O)CC1 | 7.74
* Cc1cccc(F)c1N1CCC(N2Cc3cn(C)nc3N(Cc3ccccc3C(C)C)C2=O)CC1 | 7.77
* Cc1cccc(F)c1N1CCC(N2Cc3nn(CC4(F)CC4)cc3N(Cc3ccccc3C(F)(F)F)C2=O)CC1 | 8.05
* Cc1cccc(F)c1N1CCC(N2Cc3cn(C[C@H]4CCN4C(=O)OC(C)(C)C)nc3N(Cc3ccccc3C(F)(F)F)C2=O)CC1 | 7.70
* Cc1cccc(F)c1N1CCC(N2C(=O)N(Cc3ccccc3C(F)(F)F)c3nn(CC(C)(F)F)cc3C2C)CC1 (single isomer, unassigned) [Example 306] | 6.55
* COc1nccc(C(F)F)c1N1CCC(N2C(=O)N(Cc3ccccc3C3CC3)c3nn(C4CC4)cc3C2C)CC1 (single isomer, unassigned) [Example 383] | 6.69
